FYI, the data here is from paper PMC4738305.

assay: Concentration and elimination of ADP and its metabolites in liver, kidney, muscle, fat/skin after oral ^3H-ADP for 7 d; assay type: in vivo, carp; details: carp, muscle, oral, 5 mg/kg b.w.
EXPERIMENTAL ENDPOINT: concentration at 1 d (ng/g)

(1) CNc1c(OC)cc(Cc2cnc(N)nc2N)cc1OC [A1, N-monodesmethyl-ADP]
(2) COc1cc(Cc2cnc(N)nc2N)cc(OC)c1N(C)C [A0]
Which value of concentration at 1 d is smaller, the one for 1 or the one for 2 ? Respond using the label that marks the chosen record.
1

---

assay: Concentration and elimination of ADP and its metabolites in liver, kidney, muscle, fat/skin after oral ^3H-ADP for 7 d; format: in vivo, carp; conditions: carp, skin, oral, 5 mg/kg b. w.
EXPERIMENTAL ENDPOINT: concentration at 7 d (ng/g)

(a) CNc1c(OC)cc(Cc2cnc(N)nc2N)cc1OC
(b) COc1cc(Cc2cnc(N)nc2N)cc(OC)c1N(C)C
Which value of concentration at 7 d is smaller, the one for a or the one for b ? Respond using the label that marks the chosen record.
a

---

Assay: Concentration and elimination of ADP and its metabolites in liver, kidney, muscle, fat/skin after oral ^3H-ADP for 7 d
Format: in vivo, carp
Conditions: po; carp liver, after 5 mg/kg b. w. for 7 days; read-out: t1/2 of the individual compound (converted)
Protocol: A total of 36 animals from each species (swine n = 24) were randomly assigned to six equal treatment groups and administered a single daily dose of ^3 H-ADP at 5 mg/kg b. w. (0.1 Ci/g) through oral gavage for 7 consecutive days. […] The total radioactivity levels in each sample were determined through LSC. The samples extracted from the plasma, bile, and tissues of the liver, kidney, muscle, and fat/skin were analyzed through LC/MS-IT-TOF and v. […]
EXPERIMENTAL ENDPOINT: half-life (h)

(A) COc1cc(Cc2cnc(N)nc2N)cc(OC)c1N(C)C
(B) CNc1c(OC)cc(Cc2cnc(N)nc2N)cc1OC
Which value of half-life is smaller, the one for A or the one for B ? Respond using the label that marks the chosen record.
B
(B: 26.2 h, A: 159 h)

---

assay: Concentration and elimination of ADP and its metabolites in liver, kidney, muscle, fat/skin after oral ^3H-ADP for 7 d; format: in vivo, rats; settings: po; rat kidney, after 5 mg/kg b. w. for 7 days; read-out: t1/2 of the individual compound (converted)
EXPERIMENTAL ENDPOINT: half-life (h)

MOLECULE: CNc1c(OC)cc(Cc2cnc(N)nc2N)cc1OC [A1, N-monodesmethyl-ADP]
half-life (h): 50.6

(A) COc1cc(Cc2cnc(N)nc2N)cc(OC)c1N(C)C [A0]
(B) COc1cc(Cc2cnc(N)nc2N)cc(OC)c1N [A2, N-didesmethyl-ADP]
Which value of half-life is smaller, the one for A or the one for B ? Respond using the label that marks the chosen record.
B
(B: 16.8 h, A: 76.8 h)

---

assay: Concentration and elimination of ADP and its metabolites in liver, kidney, muscle, fat/skin after oral ^3H-ADP for 7 d; format: in vivo, rats; conditions: rat, fat, oral, 5 mg/kg b. w.
EXPERIMENTAL ENDPOINT: concentration at 1 d (ng/g)
// return numeric value only (unit: ng/g, not printed)

Lab note: measured concentration at 1 d of COc1cc(Cc2cnc(N)nc2N)cc(OC)c1N(C)C [A0] was 150
